system: UACC-257 melanoma; experiment: NCI tumour cell line growth inhibition, 48 h

>  <compound>
C=C1C(=O)C[C@H]2C(=C)C(=O)O[C@@H]2C2C1CC[C@@]2(C)O (stereo partly specified)

>  <TGI>
56.1 µM

$$$$
>  <compound>
O=C1NC(=O)C(c2c[nH]c3ccccc23)=C1c1cnc[nH]1

>  <TGI>
> 100 µM

$$$$
>  <compound>
COc1ccc(C(=O)C(c2ccc(OC)cc2)C2(O)C(=O)Nc3ccc([N+](=O)[O-])cc32)cc1 (stereo unspecified)

>  <TGI>
> 100 µM

$$$$
>  <compound>
Clc1nc2ccccc2nc1CI

>  <TGI>
26.2 µM

$$$$
>  <compound>
CC(C)C(=O)[C@@]1(C)SC[C@H]2CCN=C21

>  <TGI>
> 100 µM

$$$$
>  <compound>
O=C(Nc1nc2ccc(C(F)(F)F)cc2s1)c1cc(Cl)ccc1O

>  <TGI>
5.53 µM

$$$$
